Let's look at some molecules and their measured viability, T/C.
System: 362531-283-R-J2-PDC complex spheroid viability
Assay: Anticancer human tumor 362531-283-R-J2-PDC patient-derived colon adenocarcinoma cell line growth inhibition [RAS]
Details: second compound 0.1 µM; first compound 10 µM; stronger effect = lower value
readout.type: viability, T/C (%)

{"molecule": "CC(C)NCC(C(=O)N1CCN(c2ncnc3c2C(C)CC3O)CC1)c1ccc(Cl)cc1 (stereo unspecified) + C=CC(=O)N1CCN(c2nc(OCC3CCCN3C)nc3c(F)c(-c4nc(N)cc(C)c4C(F)(F)F)c(Cl)cc23)C(C)C1", "study.system": "362531-283-R-J2-PDC complex spheroid viability", "readout.type": "viability, T/C", "measured.number": 102}
{"molecule": "C[C@@H](NC(=O)c1ncnc(N)c1Cl)c1ncc(C(=O)Nc2cc(C(F)(F)F)c(Cl)cn2)s1 + C=CC(=O)N1CCN(c2nc(OCC3CCCN3C)nc3c(F)c(-c4nc(N)cc(C)c4C(F)(F)F)c(Cl)cc23)C(C)C1", "study.system": "362531-283-R-J2-PDC complex spheroid viability", "readout.type": "viability, T/C", "measured.number": 60.3}
{"molecule": "NC1c2ccccc2OC12CCN(c1cnc3c(N4CCCc5ncccc54)n[nH]c3n1)CC2 (stereo unspecified) + C=CC(=O)N1CCN(c2nc(OCC3CCCN3C)nc3c(F)c(-c4nc(N)cc(C)c4C(F)(F)F)c(Cl)cc23)C(C)C1", "study.system": "362531-283-R-J2-PDC complex spheroid viability", "readout.type": "viability, T/C", "measured.number": 43}
{"molecule": "CC(Nc1ccc2c(c1)OCCn1cc(N3C(=O)OCC3C(F)F)nc1-2)C(N)=O (stereo unspecified) + C=CC(=O)N1CCN(c2nc(OCC3CCCN3C)nc3c(F)c(-c4nc(N)cc(C)c4C(F)(F)F)c(Cl)cc23)C(C)C1", "study.system": "362531-283-R-J2-PDC complex spheroid viability", "readout.type": "viability, T/C", "measured.number": 27.4}
{"molecule": "CC1(O)CCCC1n1c(=O)c(C(F)F)cc2cnc(NC3CCN(S(C)(=O)=O)CC3)nc21 (stereo unspecified) + C#Cc1c(F)ccc2cc(O)cc(-c3ncc4c(N5CC6CCC(C5)N6)nc(OCC56CCCN5CC(F)C6)nc4c3F)c12", "study.system": "362531-283-R-J2-PDC complex spheroid viability", "readout.type": "viability, T/C", "measured.number": 73.2}
{"molecule": "CC(=O)OC12COC1CC(O)C1(C)C(=O)C(O)C3=C(C)C(OC(=O)C(O)C(NC(=O)OC(C)(C)C)c4ccccc4)CC(O)(C(OC(=O)c4ccccc4)C21)C3(C)C (stereo unspecified) + C#Cc1c(F)ccc2cc(O)cc(-c3ncc4c(N5CC6CCC(C5)N6)nc(OCC56CCCN5CC(F)C6)nc4c3F)c12", "study.system": "362531-283-R-J2-PDC complex spheroid viability", "readout.type": "viability, T/C", "measured.number": 15.5}

* * *

Test system: 362531-283-R-J2-PDC complex spheroid viability
Assay: Anticancer human tumor 362531-283-R-J2-PDC cell line growth inhibition [RAS];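 also: spheroids exposed to the agents for 7 days before readout; luminescence viability as percent of DMSO vehicle control wells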
Conditions: second compound 0.03 µM; first compound 0.01 µM; stronger effect = lower value
readout.type: viability, T/C (%)

{"molecule": "C=CC(=O)Nc1cc(Nc2nccc(-c3cn(C)c4ccccc34)n2)c(OC)cc1N(C)CCN(C)C + CCn1c(-c2cccnc2C(C)OC)c2c3cc(ccc31)N1CCOC(CC(NC(=O)C(C(C)C)N(C)C(=O)C3(F)CCN(C(=O)C#CC(C)(C)N(C)C)CC3)C(=O)N3CCCC(N3)C(=O)OCC(C)(C)C2)C1", "readout.type": "viability, T/C", "measured.number": 99.9}
{"molecule": "Nc1ccn(C2OC(CO)C(O)C2(F)F)c(=O)n1 (stereo not drawn) + CCn1c(-c2cccnc2C(C)OC)c2c3cc(ccc31)N1CCOC(CC(NC(=O)C(C(C)C)N(C)C(=O)C3(F)CCN(C(=O)C#CC(C)(C)N(C)C)CC3)C(=O)N3CCCC(N3)C(=O)OCC(C)(C)C2)C1", "readout.type": "viability, T/C", "measured.number": 83.5}
{"molecule": "C=CC(=O)N1CCN(c2nc(OCC3CCCN3C)nc3c(F)c(-c4nc(N)cc(C)c4C(F)(F)F)c(Cl)cc23)C(C)C1 (stereo not drawn) + CCn1c(-c2cc(N3CCN(C)CC3)cnc2C(C)OC)c2c3cc(ccc31)-c1csc(n1)CC(NC(=O)C1CC1C)C(=O)N1CCCC(N1)C(=O)OCC(C)(C)C2", "readout.type": "viability, T/C", "measured.number": 104}
{"molecule": "C=CC(=O)Nc1cc(Nc2nccc(-c3cn(C)c4ccccc34)n2)c(OC)cc1N(C)CCN(C)C + CCn1c(-c2cc(N3CCN(C)CC3)cnc2C(C)OC)c2c3cc(ccc31)-c1csc(n1)CC(NC(=O)C1CC1C)C(=O)N1CCCC(N1)C(=O)OCC(C)(C)C2", "readout.type": "viability, T/C", "measured.number": 91.8}
{"molecule": "CC(C)n1nc(-c2ccc3oc(N)nc3c2)c2c(N)ncnc21 + CCn1c(-c2cc(N3CCN(C)CC3)cnc2C(C)OC)c2c3cc(ccc31)-c1csc(n1)CC(NC(=O)C1CC1C)C(=O)N1CCCC(N1)C(=O)OCC(C)(C)C2", "readout.type": "viability, T/C", "measured.number": 92}
{"molecule": "O=C(c1ccc(F)c(F)c1Nc1ccc(I)cc1F)N1CC(O)([C@@H]2CCCCN2)C1 + CCn1c(-c2cc(N3CCN(C)CC3)cnc2C(C)OC)c2c3cc(ccc31)-c1csc(n1)CC(NC(=O)C1CC1C)C(=O)N1CCCC(N1)C(=O)OCC(C)(C)C2", "readout.type": "viability, T/C", "measured.number": 75.7}
{"molecule": "O=C(c1ccc(F)c(F)c1Nc1ccc(I)cc1F)N1CC(O)([C@@H]2CCCCN2)C1 + CCn1c(-c2cccnc2C(C)OC)c2c3cc(ccc31)N1CCOC(CC(NC(=O)C(C(C)C)N(C)C(=O)C3(F)CCN(C(=O)C#CC(C)(C)N(C)C)CC3)C(=O)N3CCCC(N3)C(=O)OCC(C)(C)C2)C1", "readout.type": "viability, T/C", "measured.number": 98.6}
{"molecule": "CC(C)n1nc(-c2ccc3oc(N)nc3c2)c2c(N)ncnc21 + CCn1c(-c2cccnc2C(C)OC)c2c3cc(ccc31)N1CCOC(CC(NC(=O)C(C(C)C)N(C)C(=O)C3(F)CCN(C(=O)C#CC(C)(C)N(C)C)CC3)C(=O)N3CCCC(N3)C(=O)OCC(C)(C)C2)C1", "readout.type": "viability, T/C", "measured.number": 95.5}

* * *

Test system: 362531-283-R-J2-PDC complex spheroid viability
Assay: Anticancer human tumor 362531-283-R-J2-PDC cell line growth inhibition [RAS];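 also: spheroids exposed to the agents for 7 days before readout; luminescence viability as percent of DMSO vehicle control wells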
Conditions: second compound 0.003 µM; first compound 0.1 µM; stronger effect = lower value
Let's look at some compounds and their measured viability, T/C.

{"compound": "C=CC(=O)Nc1cc(Nc2nccc(-c3cn(C)c4ccccc34)n2)c(OC)cc1N(C)CCN(C)C + CCn1c(-c2cc(N3CCN(C)CC3)cnc2C(C)OC)c2c3cc(ccc31)-c1csc(n1)CC(NC(=O)C1CC1C)C(=O)N1CCCC(N1)C(=O)OCC(C)(C)C2", "study.system": "362531-283-R-J2-PDC complex spheroid viability", "viability, T/C / %": 89.3}
{"compound": "CCN1CCN(Cc2ccc(Nc3ncc(F)c(-c4cc(F)c5nc(C)n(C(C)C)c5c4)n3)nc2)CC1 + CCn1c(-c2cccnc2C(C)OC)c2c3cc(ccc31)N1CCOC(CC(NC(=O)C(C(C)C)N(C)C(=O)C3(F)CCN(C(=O)C#CC(C)(C)N(C)C)CC3)C(=O)N3CCCC(N3)C(=O)OCC(C)(C)C2)C1", "study.system": "362531-283-R-J2-PDC complex spheroid viability", "viability, T/C / %": 73}
{"compound": "CC(Nc1ccc2c(c1)OCCn1cc(N3C(=O)OCC3C(F)F)nc1-2)C(N)=O (configuration not stated) + CCn1c(-c2cccnc2C(C)OC)c2c3cc(ccc31)N1CCOC(CC(NC(=O)C(C(C)C)N(C)C(=O)C3(F)CCN(C(=O)C#CC(C)(C)N(C)C)CC3)C(=O)N3CCCC(N3)C(=O)OCC(C)(C)C2)C1", "study.system": "362531-283-R-J2-PDC complex spheroid viability", "viability, T/C / %": 95.5}
{"compound": "Cc1nc(N2CCC3(CC2)COC(C)C3N)c(CO)nc1Sc1ccnc(N)c1Cl (configuration not stated) + CCn1c(-c2cc(N3CCN(C)CC3)cnc2C(C)OC)c2c3cc(ccc31)-c1csc(n1)CC(NC(=O)C1CC1C)C(=O)N1CCCC(N1)C(=O)OCC(C)(C)C2", "study.system": "362531-283-R-J2-PDC complex spheroid viability", "viability, T/C / %": 113}
{"compound": "Cc1nc(N2CCC3(CC2)COC(C)C3N)c(CO)nc1Sc1ccnc(N)c1Cl (configuration not stated) + CCn1c(-c2cccnc2C(C)OC)c2c3cc(ccc31)N1CCOC(CC(NC(=O)C(C(C)C)N(C)C(=O)C3(F)CCN(C(=O)C#CC(C)(C)N(C)C)CC3)C(=O)N3CCCC(N3)C(=O)OCC(C)(C)C2)C1", "study.system": "362531-283-R-J2-PDC complex spheroid viability", "viability, T/C / %": 103}
{"compound": "NC1c2ccccc2OC12CCN(c1cnc3c(N4CCCc5ncccc54)n[nH]c3n1)CC2 (configuration not stated) + CCn1c(-c2cc(N3CCN(C)CC3)cnc2C(C)OC)c2c3cc(ccc31)-c1csc(n1)CC(NC(=O)C1CC1C)C(=O)N1CCCC(N1)C(=O)OCC(C)(C)C2", "study.system": "362531-283-R-J2-PDC complex spheroid viability", "viability, T/C / %": 90.3}
{"compound": "C=CC(=O)N1CCN(c2nc(OCC3CCCN3C)nc3c(F)c(-c4nc(N)cc(C)c4C(F)(F)F)c(Cl)cc23)C(C)C1 (configuration not stated) + CCn1c(-c2cc(N3CCN(C)CC3)cnc2C(C)OC)c2c3cc(ccc31)-c1csc(n1)CC(NC(=O)C1CC1C)C(=O)N1CCCC(N1)C(=O)OCC(C)(C)C2", "study.system": "362531-283-R-J2-PDC complex spheroid viability", "viability, T/C / %": 92}
